experiment: Rat pharmacokinetics (PK) test; format: in vivo, SD rats; conditions: SD, plasma, IV intravenous injection (1 mg/kg), read-out: Half-life t 1/2 (converted)
READOUT: half-life (h)
// return numeric value only (unit: h, not printed)

Problem: Requested read-out: half-life. Entry: O=C(O)C[S+]([O-])c1cc(NS(=O)(=O)c2ccc(Br)cc2)c2ccccc2c1O (stereo not shown)
Solution: 1.93

* * *

test: Rat pharmacokinetics (PK) test; assay type: in vivo, SD rats; details: SD, plasma, IV intravenous injection (1 mg/kg), read-out: Eliminate Cl
READOUT: clearance
Answer format reminder: number followed by unit.

Problem: Requested read-out: clearance. Entry: O=C(O)C[S+]([O-])c1cc(NS(=O)(=O)c2ccc(Br)cc2)c2ccccc2c1O (stereo not shown)
Solution: 4.91 mL/min/kg

* * *

experiment: Mouse pharmacokinetics (PK) test; format: in vivo, ICR mice; settings: ICR, plasma, IV intravenous injection, 1 mg/kg, read-out: Steady state apparent volume of distribution Vss
As shown below, each of these compounds has a reported Vd value.
// return numeric value only (unit: L/kg, not printed)

Example cases with answers are listed next.
- COMPOUND: "CN(c1cc([S+]([O-])CC(=O)O)c(O)c2ccccc12)S(=O)(=O)c1ccc(Br)cc1 (stereo not drawn) [Compound I-2]"
  QUANTITATIVE READOUT: 1.39
- COMPOUND: "O=C(O)C[S+]([O-])c1cc(NS(=O)(=O)c2ccc(Br)cc2)c2ccccc2c1O (stereo not drawn) [Compound I-1]"
  QUANTITATIVE READOUT: 2.3

Attention now turns to another entry.
Problem: Requested read-out: Vd. Entry: O=C(O)CSc1cc(NS(=O)(=O)c2ccc(Br)cc2)c2ccccc2c1O [UMI-77, reference compound]
Solution: 18.4

* * *

Experiment: Rat pharmacokinetics (PK) test
Format: in vivo, SD rats
Settings: SD, plasma, IV intravenous injection (1 mg/kg), read-out: Steady state apparent volume of distribution V ss
Procedure: Take experimental mice and apply an appropriate amount of the test compound to them according to the dosage and administration route shown in the figure. […] At the corresponding time point, take 10 μL of rat plasma sample into a centrifuge tube, add 100 μL of methanol:acetonitrile (1:1, v/v), perform […] for 1 min, centrifuged (14000 rpm) for 5 min, and take 50 μL of the supernatant, mixed with water in equal volumes, mixed uniformly by […] and then analyzed. […]
READOUT: Vd (L/kg)
// return numeric value only (unit: L/kg, not printed)

Problem: Requested read-out: Vd. Entry: O=C(O)C[S+]([O-])c1cc(NS(=O)(=O)c2ccc(Br)cc2)c2ccccc2c1O (stereo not shown) [Compound I-1]
Solution: 0.63

* * *

assay: Mouse pharmacokinetics (PK) test; assay type: in vivo, ICR mice; conditions: ICR, plasma, IP intraperitoneal injection, 3 mg/kg, read-out: Bioavailability F
READOUT: bioavailability (%)
// return numeric value only (unit: %, not printed)

Problem: Requested read-out: bioavailability. Entry: O=C(O)C[S+]([O-])c1cc(NS(=O)(=O)c2ccc(Br)cc2)c2ccccc2c1O (stereo not shown)
Solution: 247

* * *

test: Rat pharmacokinetics (PK) test; format: in vivo, SD rats; conditions: SD, plasma, IP intraperitoneal injection (3 mg/kg)
READOUT: AUC(0-inf) (ng·h/mL)
// return numeric value only (unit: ng·h/mL, not printed)

Problem: Requested read-out: AUC(0-inf). Entry: O=C(O)C[S+]([O-])c1cc(NS(=O)(=O)c2ccc(Br)cc2)c2ccccc2c1O (stereo not shown)
Solution: 18300

* * *

assay: Mouse pharmacokinetics (PK) test; type: in vivo, ICR mice; conditions: ICR, plasma, IV intravenous injection, 1 mg/kg, read-out: Peak blood concentration C max
As shown below, each of these molecules has a reported Cmax value.
// return numeric value only (unit: ng/mL, not printed)

- MOLECULE: "O=C(O)C[S+]([O-])c1cc(NS(=O)(=O)c2ccc(Br)cc2)c2ccccc2c1O (stereo not drawn)"
  MEASUREMENT UNIT: "ng/mL"
  Cmax: 832

Problem: Requested read-out: Cmax. Entry: CN(c1cc([S+]([O-])CC(=O)O)c(O)c2ccccc12)S(=O)(=O)c1ccc(Br)cc1 (stereo not drawn)
Solution: 947

Problem: Requested read-out: Cmax. Entry: O=C(O)CSc1cc(NS(=O)(=O)c2ccc(Br)cc2)c2ccccc2c1O [UMI-77, reference compound]
Solution: 314

* * *

assay: Rat pharmacokinetics (PK) test; type: in vivo, SD rats; conditions: SD, plasma, IV intravenous injection (1 mg/kg)
READOUT: AUC(0-inf) (µg·h/mL)
// return numeric value only (unit: µg·h/mL, not printed)

Problem: Requested read-out: AUC(0-inf). Entry: O=C(O)C[S+]([O-])c1cc(NS(=O)(=O)c2ccc(Br)cc2)c2ccccc2c1O (stereo not shown) [Compound I-1]
Solution: 3.72

* * *

Assay: Rat pharmacokinetics (PK) test
Type: in vivo, SD rats
Conditions: SD, plasma, IP intraperitoneal injection (3 mg/kg), read-out: Peak blood concentration C max
Procedure: Take experimental mice and apply an appropriate amount of the test compound to them according to the dosage and administration route shown in the figure. […] At the corresponding time point, take 10 μL of rat plasma sample into a centrifuge tube, add 100 μL of methanol:acetonitrile (1:1, v/v), perform […] for 1 min, centrifuged (14000 rpm) for 5 min, and take 50 μL of the supernatant, mixed with water in equal volumes, mixed uniformly by […] and then analyzed. […]
READOUT: Cmax
Answer format reminder: number followed by unit.

Problem: Requested read-out: Cmax. Entry: O=C(O)C[S+]([O-])c1cc(NS(=O)(=O)c2ccc(Br)cc2)c2ccccc2c1O (stereo not shown) [Compound I-1]
Solution: 5440 ng/mL

* * *

test: Mouse pharmacokinetics (PK) test; type: in vivo, ICR mice; conditions: ICR, plasma, PO oral gavage, 10 mg/kg, read-out: Half-life t 1/2 (converted)
As shown below, each of these molecules has a reported half-life value.
// return numeric value only (unit: h, not printed)

- MOLECULE: "O=C(O)C[S+]([O-])c1cc(NS(=O)(=O)c2ccc(Br)cc2)c2ccccc2c1O (centres unmarked) [Compound I-1]"
  half-life [h]: 1.96

Attention now turns to another entry.
Problem: Requested read-out: half-life. Entry: CN(c1cc([S+]([O-])CC(=O)O)c(O)c2ccccc12)S(=O)(=O)c1ccc(Br)cc1 (centres unmarked) [Compound I-2]
Solution: 1.37

* * *

test: Rat pharmacokinetics (PK) test; format: in vivo, SD rats; settings: SD, plasma, PO oral gavage (10 mg/kg)
READOUT: AUC(0-inf)
Answer format reminder: number followed by unit.

Problem: Requested read-out: AUC(0-inf). Entry: O=C(O)C[S+]([O-])c1cc(NS(=O)(=O)c2ccc(Br)cc2)c2ccccc2c1O (stereo not shown)
Solution: 6070 ng·h/mL

* * *

assay: Mouse pharmacokinetics (PK) test; assay type: in vivo, ICR mice; conditions: ICR, plasma, IV intravenous injection, 1 mg/kg, read-out: Half-life t 1/2 (converted)
READOUT: half-life
Answer format reminder: number followed by unit.

- COMPOUND: "CN(c1cc([S+]([O-])CC(=O)O)c(O)c2ccccc12)S(=O)(=O)c1ccc(Br)cc1 (centres unmarked) [Compound I-2]"
  READOUT: "half-life"
  RESULT: "0.98 h"

Problem: Requested read-out: half-life. Entry: O=C(O)C[S+]([O-])c1cc(NS(=O)(=O)c2ccc(Br)cc2)c2ccccc2c1O (centres unmarked) [Compound I-1]
Solution: 1.25 h

* * *

assay: Mouse pharmacokinetics (PK) test; type: in vivo, ICR mice; conditions: ICR, plasma, IV intravenous injection, 1 mg/kg
As shown below, each of these molecules has a reported AUC(0-inf) value.
Answer format reminder: number followed by unit.

Example cases with answers are listed next.
- MOLECULE: "CN(c1cc([S+]([O-])CC(=O)O)c(O)c2ccccc12)S(=O)(=O)c1ccc(Br)cc1 (stereo not drawn)"
  AUC(0-inf): "429 ng·h/mL"
- MOLECULE: "O=C(O)CSc1cc(NS(=O)(=O)c2ccc(Br)cc2)c2ccccc2c1O [UMI-77, reference compound]"
  AUC(0-inf): "140 ng·h/mL"

Attention now turns to another entry.
Problem: Requested read-out: AUC(0-inf). Entry: O=C(O)C[S+]([O-])c1cc(NS(=O)(=O)c2ccc(Br)cc2)c2ccccc2c1O (stereo not drawn)
Solution: 714 ng·h/mL

* * *

assay: Mouse pharmacokinetics (PK) test; type: in vivo, ICR mice; conditions: ICR, plasma, IP intraperitoneal injection, 3 mg/kg, read-out: Peak blood concentration C max
READOUT: Cmax (ng/mL)
// return numeric value only (unit: ng/mL, not printed)

Problem: Requested read-out: Cmax. Entry: O=C(O)C[S+]([O-])c1cc(NS(=O)(=O)c2ccc(Br)cc2)c2ccccc2c1O (stereo not shown)
Solution: 3740

* * *

test: Mouse pharmacokinetics (PK) test; assay type: in vivo, ICR mice; conditions: ICR, plasma, IV intravenous injection, 1 mg/kg, read-out: Eliminate Cl
READOUT: clearance (mL/min/kg)
// return numeric value only (unit: mL/min/kg, not printed)

- MOLECULE: "O=C(O)CSc1cc(NS(=O)(=O)c2ccc(Br)cc2)c2ccccc2c1O [UMI-77, reference compound]"
  MEASUREMENT UNIT: "mL/min/kg"
  QUANTITATIVE READOUT: 131
- MOLECULE: "CN(c1cc([S+]([O-])CC(=O)O)c(O)c2ccccc12)S(=O)(=O)c1ccc(Br)cc1 (stereo not drawn)"
  MEASUREMENT UNIT: "mL/min/kg"
  QUANTITATIVE READOUT: 39.3

Problem: Requested read-out: clearance. Entry: O=C(O)C[S+]([O-])c1cc(NS(=O)(=O)c2ccc(Br)cc2)c2ccccc2c1O (stereo not drawn)
Solution: 24.9
